Target: Peroxisome proliferator-activated receptor (Homo sapiens, UniProt P37231+Q07869+Q03181)
Sequence (P37231 whole entry): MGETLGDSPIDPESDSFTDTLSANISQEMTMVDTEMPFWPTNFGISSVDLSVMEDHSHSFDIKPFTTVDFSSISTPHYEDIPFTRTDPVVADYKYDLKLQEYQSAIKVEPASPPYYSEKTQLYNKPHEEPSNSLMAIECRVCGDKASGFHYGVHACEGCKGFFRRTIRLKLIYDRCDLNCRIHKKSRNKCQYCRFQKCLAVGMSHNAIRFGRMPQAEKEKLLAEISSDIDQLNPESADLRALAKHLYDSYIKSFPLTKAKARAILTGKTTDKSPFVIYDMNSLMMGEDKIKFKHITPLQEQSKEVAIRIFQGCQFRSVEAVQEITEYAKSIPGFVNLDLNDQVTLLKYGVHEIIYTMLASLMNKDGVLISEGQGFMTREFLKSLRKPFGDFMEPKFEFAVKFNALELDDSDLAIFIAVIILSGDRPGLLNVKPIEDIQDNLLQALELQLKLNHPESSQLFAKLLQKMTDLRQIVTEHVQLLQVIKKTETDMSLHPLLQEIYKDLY
Sequence (Q07869 whole entry): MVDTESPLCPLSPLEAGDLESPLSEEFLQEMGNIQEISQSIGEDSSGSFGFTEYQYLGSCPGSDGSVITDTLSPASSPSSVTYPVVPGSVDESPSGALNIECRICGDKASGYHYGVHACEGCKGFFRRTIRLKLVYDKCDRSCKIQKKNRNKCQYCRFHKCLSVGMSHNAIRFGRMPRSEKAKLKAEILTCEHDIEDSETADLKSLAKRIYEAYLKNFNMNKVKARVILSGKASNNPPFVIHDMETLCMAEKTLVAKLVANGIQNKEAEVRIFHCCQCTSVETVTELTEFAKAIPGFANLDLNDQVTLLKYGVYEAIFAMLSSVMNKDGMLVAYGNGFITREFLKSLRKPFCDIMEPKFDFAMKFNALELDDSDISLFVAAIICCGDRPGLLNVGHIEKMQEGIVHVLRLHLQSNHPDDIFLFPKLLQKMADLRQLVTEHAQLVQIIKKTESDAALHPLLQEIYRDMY
Sequence (Q03181 whole entry): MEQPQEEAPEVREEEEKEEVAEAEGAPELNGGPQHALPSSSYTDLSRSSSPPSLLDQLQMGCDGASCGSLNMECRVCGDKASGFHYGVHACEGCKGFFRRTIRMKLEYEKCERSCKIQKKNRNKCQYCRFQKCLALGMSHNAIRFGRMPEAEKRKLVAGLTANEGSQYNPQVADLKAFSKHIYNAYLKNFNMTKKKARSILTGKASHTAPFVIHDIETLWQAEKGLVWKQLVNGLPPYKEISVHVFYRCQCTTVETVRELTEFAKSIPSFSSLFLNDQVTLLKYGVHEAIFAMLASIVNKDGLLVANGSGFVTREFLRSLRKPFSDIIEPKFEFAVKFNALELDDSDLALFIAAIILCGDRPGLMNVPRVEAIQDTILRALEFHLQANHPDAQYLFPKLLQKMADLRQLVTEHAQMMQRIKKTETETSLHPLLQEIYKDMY
Assay: Transactivation of PPAR transfected in human HepG2 cells after 20 hrs by PPAR-luciferase assay
Assay type: cell-based
Please respond with reported EC50 for every item in the list.

CCCCC/C=C\C/C=C\CCCCCCCC(=O)O[C@H]1C2=C3CC[C@H]([C@H](C)/C=C/[C@H](C)C(C)C)[C@@]3(C)CC[C@@H]2[C@@]2(C)CC[C@H](O)C[C@@]23O[C@@H]13
6.4 µM

Consider the following items and state reported EC50 for each.
1. CCCCCCCCCCCCCCCC(=O)O[C@H]1C=C2[C@@H]3CC[C@H]([C@H](C)/C=C/[C@H](C)C(C)C)[C@@]3(C)CC[C@@H]2[C@@]2(C)CC[C@H](O)C[C@]12O
2. CCCCCCCCCCCCCCCCCC(=O)O[C@H]1CC[C@]2(C)[C@H]3CC[C@]4(C)[C@@H]([C@H](C)/C=C/[C@H](C)C(C)C)CC[C@H]4C3=C[C@H](O)[C@@]2(O)C1
3. CCCCCCCC/C=C\CCCCCCCC(=O)O[C@H]1C=C2[C@@H]3CC[C@H]([C@H](C)/C=C/[C@H](C)C(C)C)[C@@]3(C)CC[C@@H]2[C@@]2(C)CC[C@H](O)C[C@]12O
4. CC/C=C\C/C=C\C/C=C\CCCCCCCC(=O)O[C@@H]1C=C2[C@@H]3CC[C@H]([C@H](C)/C=C/[C@H](C)C(C)C)[C@@]3(C)CC[C@@H]2[C@@]2(C)CC[C@H](O)C[C@]12O
5. CCCCC/C=C\C/C=C\CCCCCCCC(=O)O[C@H]1C=C2[C@@H]3CC[C@H]([C@H](C)/C=C/[C@H](C)C(C)C)[C@@]3(C)CC[C@@H]2[C@@]2(C)CC[C@H](O)C[C@]12O

["> 50 µM", "20.6 µM", "> 50 µM", "> 50 µM", "> 50 µM"]

FYI, the data here is from ChEMBL document CHEMBL3351253.
